Please go through the items and note down their pIC50.
biological target: DGKα (Homo sapiens (Human)); test: Human DGKα kinase activity inhibition assay (ADP-Glo); conditions: recombinant full-length human DGKα, 55 μM ATP, 7 μM 1,2-dioleoyl-sn-glycerol, read-out: IC50 values of examples in in vitro human DGKa kinase activity inhibition assays
Answers are plain numbers, as −log10 of the molar value.

INSERT INTO assay_data (compound, parameter, result_value) VALUES
  ('CCC1(c2nc3ccccc3o2)CCN(c2c(C#N)c(=O)n(C)c3cc(Br)ccc23)CC1', 'pIC50', 8.92),
  ('COc1cccc(-c2csc(C3CCN(c4c(C#N)c(=O)n(C)c5ccccc45)CC3)n2)c1', 'pIC50', 7.85),
  ('COc1ccc(C2CCN(c3c(C#N)c(=O)n(C)c4cc(C)ccc34)CC2)cc1', 'pIC50', 8.51),
  ('Cc1ccc2oc(C3CCN(c4c(C#N)c(=O)n(C)c5cc(C)ccc45)CC3)nc2c1', 'pIC50', 8.74),
  ('C=C(c1cc2c(N3CCC(c4nc5cc(C)ccc5o4)CC3)c(C#N)c(=O)n(C)c2cc1OC1CCOC1)C(F)(F)F (racemic)', 'pIC50', 8.07);

Quick one: give me pIC50 for each item below, same order please.
1. Cc1ccccc1-c1nnc(C2CCN(c3c(C#N)c(=O)n(C)c4ccc(Br)cc34)CC2)o1
2. Cc1ccc2c(c1)c(N1CCC(c3nc4ccccc4o3)CC1)c(C(N)=O)c(=O)n2C
3. Cn1c(=O)c(C(N)=O)c(N2CCC(c3nc4ccccc4s3)CC2)c2ccccc21
4. Cc1ccc2oc(C3CCN(c4c(C#N)c(=O)n(C)c5cc(NC6COC6)c(C)cc45)CC3)nc2c1
5. Cn1c(=O)c(C(N)=O)c(N2CCC(c3ccccc3)CC2)c2ccccc21

## Output
7.82
8.62
8.46
9.22
7.82

Quick one: give me pIC50 for each item below, same order please.
1. Cc1ccc2oc(C3CCN(c4c(C#N)c(=O)n(C)c5cc(OC6CCOC6)ccc45)CC3)nc2c1 (racemic) [Example 379]
2. Cn1c(=O)c(C#N)c(N2CCC(c3cccc(NS(=O)(=O)c4ccccc4)c3)CC2)c2ccccc21
3. Cc1ccc2oc(C3CCN(c4c(C#N)c(=O)n(C)c5ccccc45)CC3)nc2c1

## Output
9.00
7.00
8.80

## Input Return value of pIC50 for input `Cc1ccc2oc(C3(C)CCN(c4c(C#N)c(=O)n(C)c5ccc(C)cc45)CC3)nc2c1` , no commentary.
## Output 8.70

###

molecular target: DGKα (Homo sapiens (Human), UniProt P23743); assay: Human DGKα kinase activity inhibition assay (ADP-Glo); type: biochemical; conditions: recombinant full-length human DGKα, 55 μM ATP, 7 μM 1,2-dioleoyl-sn-glycerol, read-out: IC50 values of examples in in vitro human DGKa kinase activity inhibition assays
Sequence (P23743 other isoform, or with tags, fused parts or gaps): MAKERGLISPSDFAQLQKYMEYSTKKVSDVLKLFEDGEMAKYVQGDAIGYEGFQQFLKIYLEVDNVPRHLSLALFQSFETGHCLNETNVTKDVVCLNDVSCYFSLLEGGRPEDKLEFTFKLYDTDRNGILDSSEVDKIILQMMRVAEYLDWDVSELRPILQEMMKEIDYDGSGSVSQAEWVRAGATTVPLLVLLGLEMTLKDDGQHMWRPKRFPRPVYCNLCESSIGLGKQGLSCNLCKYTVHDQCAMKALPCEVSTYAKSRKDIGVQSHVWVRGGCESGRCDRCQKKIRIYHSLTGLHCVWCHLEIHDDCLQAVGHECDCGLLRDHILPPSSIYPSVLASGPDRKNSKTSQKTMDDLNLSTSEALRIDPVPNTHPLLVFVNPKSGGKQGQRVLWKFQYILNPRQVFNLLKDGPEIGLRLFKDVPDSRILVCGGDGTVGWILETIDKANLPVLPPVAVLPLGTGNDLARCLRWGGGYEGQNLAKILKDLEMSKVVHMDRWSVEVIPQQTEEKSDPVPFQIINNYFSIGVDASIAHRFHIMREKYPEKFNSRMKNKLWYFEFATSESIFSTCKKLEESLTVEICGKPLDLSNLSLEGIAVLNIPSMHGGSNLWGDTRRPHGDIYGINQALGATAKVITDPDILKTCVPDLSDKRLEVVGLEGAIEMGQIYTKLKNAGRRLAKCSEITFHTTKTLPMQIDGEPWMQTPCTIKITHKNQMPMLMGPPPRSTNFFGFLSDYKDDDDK
Param label: returns yes when IC50 < 10 nM, returns no otherwise, including exact equality.

INSERT INTO assay_data (molecule, class_name) VALUES
  ('Cc1ccc2oc(C3(C)CCN(c4c(C#N)c(=O)n(C)c5ccc(Br)cc45)CC3)nc2c1 [Example 171]', 'yes'),
  ('Cn1c(=O)c(C#N)c(N2CCC(c3nc4cc(F)ccc4o3)CC2)c2ccccc21 [Example 6]', 'yes'),
  ('Cn1c(=O)c(C#N)c(N2CCC(c3nc4cc(F)c(F)cc4o3)CC2)c2cccc(Br)c21 [Example 160]', 'no'),
  ('Cc1ccc2oc(C3CCN(c4c(C(N)=O)c(=O)n(C)c5ccccc45)CC3)nc2c1 [Example 107]', 'yes'),
  ('Cc1ccc2c(c1)c(N1CCC(C)(c3nc4ccccc4o3)CC1)c(C(N)=O)c(=O)n2C [Example 195]', 'yes');

## Input Is the reported IC50 for Cn1c(=O)c(C#N)c(N2CCC(c3cccc(NC(=O)c4ccccc4)c3)CC2)c2ccccc21 [Example 76] strictly below 10 nM?
## Output no

## Input Is the reported IC50 for Cn1c(=O)c(C#N)c(N2CCC[C@H](c3ccccc3)CC2)c2cccc(F)c21 [Example 328] strictly below 10 nM?
## Output no

## Input Is the reported IC50 for Cc1ccc2oc(C3(C)CCN(c4c(C#N)c(=O)n(C)c5cc(O)c(C#N)cc45)CC3)nc2c1 [Example 426] strictly below 10 nM?
## Output no

## Input Is the reported IC50 for Cc1ccc2oc(C3(C)CCN(c4c(C#N)c(=O)n(C)c5c(OC6COC6)cccc45)CC3)nc2c1 [Example 253] strictly below 10 nM?
## Output no

## Input Is the reported IC50 for Cc1ccc2oc(C3(C)CCN(c4c(C#N)c(=O)n(C)c5cc(OC6CC6)ccc45)CC3)nc2c1 [Example 244] strictly below 10 nM?
## Output yes
